Tested on: GS203
Experiment notes: DBD dose-response IC50, patient derived GSC culture
Format: cell-based
Test conditions: Homo sapiens, 120 h; GS203, passage 20, day 5; read-out: IC50 5 d
Readout label: IC50

Response field IC50 (GS203) for item O[C@H]([C@H](O)[C@@H](O)CBr)[C@H](O)CBr : 28.7 µM

---

Test system: GS281
Experiment notes: DBD dose-response IC50, patient derived GSC culture
Format: cell-based
Test conditions: Homo sapiens; GS281, passage 13, day 8; read-out: IC50 8 d
Readout label: IC50
Give the number first and the unit second.

Response field IC50 (GS281) for item O[C@H]([C@H](O)[C@@H](O)CBr)[C@H](O)CBr [DBD, 1,6-dibromo-1,6-dideoxy-dulcitol] : 5.55 µM

Data provenance: patent US20220142941A1
